Where these numbers come from: patent US20230003721A1

# Test system: primary forebrain neurons
# test_name: cells
# reported_conditions: rescreen, 12.5 μM, 24 h, vs DMSO wells
Structures can show the parent of a compound that is named as a salt.
Each record here notes measured Dendritic Mt CA.
Just the number in robust Z-scores, nothing appended.

Sample answers from the record:
COc1ccc(CN(CCN(C)C)c2ccccn2)cc1 [PYRILAMINE MALEATE] | 2.65
CC(C)CCC[C@@H](C)[C@H]1CC[C@H]2[C@@H]3CC=C4CC(=O)CC[C@]4(C)[C@H]3CC[C@]12C | 2.78
CN1CCN(C(c2ccccc2)c2ccccc2)CC1 | 2.82
CNC(=O)Oc1cccc2ccccc12 | 2.03
O=C(/C=C/c1ccccc1)c1ccc(O[C@@H]2O[C@H](CO)[C@@H](O)[C@H](O)[C@H]2O)cc1O [2′,4′-DIHYDROXYCHALCONE 4′-GLUCOSIDE] | 4.44
CC[C@@]1(O)C(=O)OCc2c1cc1n(c2=O)Cc2cc3cc(O)ccc3nc2-1 [10-HYDROXYCAMPTOTHECIN] | 2.23
CC12CC3CC(C)(C1)CC(N)(C3)C2 [MEMANTINE HYDROCHLORIDE] | 3.25

Query: Dear colleague, please send me the reported Dendritic Mt CA for COc1ccc2c(c1O)-c1c(OC)c(OC)cc3c1[C@H](C2)N(C)CC3 [S-ISOCORYDINE (+)] when you can.
Reply: 2.82

====

# Test system: isolated forebrain mitochondria
# test_name: ATP production of isolated mitochondria (luciferase-based kinetic assay)
# Assay type: biochemical, mouse
# reported_conditions: 12.5 μM, within the 45-min measurement period, vs DMSO
Counter-ions that a name gives are not always drawn.
assay_readout: ATP production of isolated mitochondria (direct effect)

Consider the reported ATP production of isolated mitochondria (direct effect) for these molecules:
CCN(CCCc1ccccc1)CCCc1ccccc1 [ALVERINE CITRATE] | significantly increased
O=C(/C=C/c1ccccc1)c1ccc(O)cc1 [4′-HYDROXYCHALCONE] | decreased
COc1ccccc1N1CCN(CC(O)COc2cccc3ccccc23)CC1 (stereo not drawn) | significantly increased
O=C(/C=C/c1ccccc1)c1ccc(O)cc1O [2′,4′-DIHYDROXYCHALCONE] | decreased
COc1cc(O)c2c(=O)c(O)c(-c3ccc(O)c(O)c3)oc2c1 | decreased

// switching to the query molecule
Query: Given the molecule CCCCOc1ccc(C(=O)CCN2CCCCC2)cc1 [DYCLONINE HYDROCHLORIDE] , write its reported ATP production of isolated mitochondria (direct effect).
Reply: significantly increased

====

# System: primary neurons
# test_name: TMRM fluorescence assay of inner mitochondrial membrane potential (ΔΨm)
# reported_conditions: Mus musculus, Primary neuron, read-out: TMRM-EC50
Counter-ions that a name gives are not always drawn.
assay_readout: EC50 (nM)
Report as a plain number; the unit nM is understood.

COc1ccccc1OCCNCC(O)COc1cccc2[nH]c3ccccc3c12 (stereo not drawn) | 350
CC(CN(C)C)CN1c2ccccc2CCc2ccccc21 (stereo not drawn) [trimipramine maleate] | 360
COC(=O)[C@H]1[C@H]2C[C@H]3c4[nH]c5ccccc5c4CCN3C[C@H]2CC[C@@H]1O [rauwolscine hydrochloride] | 4580
Cc1ccc(-c2cc(C(F)(F)F)nn2-c2ccc(S(N)(=O)=O)cc2)cc1 | 5180
C[N+]12CCC(CC1)C(OC(=O)C(O)(c1ccccc1)c1ccccc1)C2 (stereo not drawn) [clidinium bromide] | 450
CCCCOc1ccc(C(=O)CCN2CCCCC2)cc1 [DYCLONINE HYDROCHLORIDE] | 750

Query: Indicate its recorded EC50; the compound in question is OC(CCN1CCCCC1)(c1ccccc1)c1ccccc1 [PRIDINOL METHANESULFONATE]
Reply: 3900

Query: Note EC50 for the compound shown: COC(=O)[C@@H]1[C@H]2C[C@H]3c4[nH]c5ccccc5c4CCN3C[C@@H]2CC[C@@H]1O [YOHIMBINE HYDROCHLORIDE]
Reply: 620

Query: Identify measured EC50 corresponding to O=c1c(-c2ccc(O)cc2)coc2cc(O)cc(O)c12
Reply: 1300

====

# System: primary forebrain neurons
# test_name: cells
# reported_conditions: rescreen, 12.5 μM, 24 h, vs DMSO wells
Counter-ions that a name gives are not always drawn.
Threshold 3 robust Z-scores. Dendritic Mt CA below it: label 1. Dendritic Mt CA at it or above: label 0.

CCCCCCOc1ccccc1C(N)=O [EXALAMIDE] | label 1
O=C(O[C@H]1CN2CCC1CC2)N1CCc2ccccc2[C@@H]1c1ccccc1 [SOLIFENACIN SUCCINATE] | label 0
CC1=C(/C=C/C(C)=C/C=C/C(C)=C\C(=O)O)C(C)(C)CCC1 | label 1
Cc1cccc(C)c1N=C1NCCCS1 | label 0
C#CCN(C)CCCOc1ccc(Cl)cc1Cl [CLORGILINE HYDROCHLORIDE] | label 0
CCN(CC)CCOCCOC(=O)C(CC)(CC)c1ccccc1.O=C(O)CC(O)(CC(=O)O)C(=O)O [OXELAIDIN CITRATE] | label 1

Query: Please state whether Dendritic Mt CA is below 3 robust Z-scores for O=C(/C=C/c1ccc(O)cc1)c1ccccc1O [2′,4-DIHYDROXYCHALCONE]
Reply: label 1

Query: Please state whether Dendritic Mt CA is below 3 robust Z-scores for O=C(CCc1ccc(O)cc1)c1c(O)cc(O)cc1O
Reply: label 1

Query: Report whether reported Dendritic Mt CA is lower than 3 robust Z-scores (strictly) for CCCC1O[C@@H]2C[C@H]3[C@@H]4CCC5=CC(=O)C=C[C@]5(C)[C@H]4[C@@H](O)C[C@]3(C)[C@]2(C(=O)CO)O1 (stereo partly drawn) [BUDESONIDE]
Reply: label 1

====

# System: primary neurons
# test_name: CellTiter-Glo luminescence-based ATP assay
# Format: cell-based, mouse
# reported_conditions: Mus musculus, Primary neuron; dose response, 15 concentrations from 6 nM to 100 uM
Structures can show the parent of a compound that is named as a salt.
assay_readout: pEC50
Just the number, please; pEC50 means minus log10 of the concentration in mol/L.

Example entries begin here.
COC(=O)[C@H]1[C@H]2C[C@@H]3c4[nH]c5cc(OC)ccc5c4CCN3C[C@H]2C[C@@H](OC(=O)c2cc(OC)c(OC)c(OC)c2)[C@@H]1OC | 6.92
CCCCOc1cc(C(=O)OCCN(CC)CC)ccc1N [benoxinate hydrochloride] | 7.10
O=c1[nH]c2ccccc2n1C1CCN(CCCC(c2ccc(F)cc2)c2ccc(F)cc2)CC1 [pimozide] | 7.05
C[N+]12CCC(CC1)C(OC(=O)C(O)(c1ccccc1)c1ccccc1)C2 (stereo not shown) [clidinium bromide] | 6.38
OC(CCN1CCCCC1)(c1ccccc1)c1ccccc1 [PRIDINOL METHANESULFONATE] | 5.78
COc1ccccc1OCCNCC(O)COc1cccc2[nH]c3ccccc3c12 (stereo not shown) | 6.64
O=C(c1ccc(F)cc1)C1CCN(CCn2c(=O)[nH]c3ccccc3c2=O)CC1 [ketanserin tartrate] | 6.80
CCN(CC)CC(=O)Nc1c(C)cccc1C [lidocaine hydrochloride] | 6.96
OC(CCN1CCCC1)(c1ccccc1)C1CCCCC1 (stereo not shown) [procyclidine hydrochloride] | 6.62
OC1(c2ccc(Cl)c(C(F)(F)F)c2)CCN(CCCC(c2ccc(F)cc2)c2ccc(F)cc2)CC1 | 7.52

Query: Quote pEC50 with test system primary neurons for OC(CCN1CCCCC1)(c1ccccc1)C1CCCCC1 (stereo not shown) [trihexyphenidyl hydrochloride]
Reply: 6.77

Query: Find the measured pEC50 of COC(=O)[C@@H]1[C@H]2C[C@H]3c4[nH]c5ccccc5c4CCN3C[C@@H]2CC[C@@H]1O [YOHIMBINE HYDROCHLORIDE] with primary neurons as test system.
Reply: 6.57

Query: Name the recorded pEC50 of CNCCC=C1c2ccccc2CCc2ccccc21 [nortriptyline hydrochloride] , assay system primary neurons.
Reply: 6.70

Query: State, for primary neurons, measured pEC50 of the compound listed here: CC(CN(C)C)CN1c2ccccc2CCc2ccccc21 (stereo not shown) [trimipramine maleate]
Reply: 6.74

Query: Lab note: primary neurons assay, enter pEC50 for COC(=O)[C@H]1[C@H]2C[C@H]3c4[nH]c5ccccc5c4CCN3C[C@H]2CC[C@@H]1O [rauwolscine hydrochloride] here
Reply: 6.00

Query: # assay system primary neurons: give pEC50 of CCCCOc1ccc(C(=O)CCN2CCCCC2)cc1 [DYCLONINE HYDROCHLORIDE]
Reply: 6.85

Query: Please report pEC50 with primary neurons for item O=c1c(-c2ccc(O)cc2)coc2cc(O)cc(O)c12 .
Reply: 5.52

Query: State pEC50 on primary neurons. Entry: Cc1ccc(-c2cc(C(F)(F)F)nn2-c2ccc(S(N)(=O)=O)cc2)cc1
Reply: 6.31

Query: Provide pEC50, recorded with primary neurons, of COc1ccccc1N1CCN(CC(O)COc2cccc3ccccc23)CC1 (stereo not shown)
Reply: 6.64
